Where these numbers come from: patent US6987114B1

system: mock-infected MT-4 cells; experiment: Cytotoxicity based on viability of mock-infected host cells (MTT method); assay type: cell-based; conditions: mock-infected MT-4 cells, MTT method, 4 or 5 days at 37° C.
So basically, if CD50 comes in under 10 µg/mL it's Met, and if it's 10 µg/mL or more it's Not met.

LINE NOTATION: CCc1c(Sc2cc(C)cc(C)c2)n(Cc2cc(Br)cc(Br)c2)c(=O)[nH]c1=O
LABEL VALUE: Not met
//
LINE NOTATION: Cc1cc(C)cc(Sc2c(C(C)C)c(=O)[nH]c(=O)n2Cc2cc(Br)cc(Br)c2)c1
LABEL VALUE: Met
//
LINE NOTATION: CCc1c(Sc2cc(C)cc(C)c2)n(Cc2cccc(OC)c2)c(=O)[nH]c1=O
LABEL VALUE: Met
//
LINE NOTATION: Cc1cc(C)cc(Sc2c(C(C)C)c(=O)[nH]c(=O)n2Cc2cccc(C#N)c2)c1
LABEL VALUE: Met
//
LINE NOTATION: CCc1c(Oc2cc(C)cc(C)c2)n(Cc2nc3ccccc3o2)c(=O)[nH]c1=O
LABEL VALUE: Not met
//
LINE NOTATION: Cc1cc(C)cc(C(=O)c2c(C(C)C)c(=O)[nH]c(=O)n2Cc2ccccn2)c1
LABEL VALUE: Not met
//
LINE NOTATION: Cc1cc(C)cc(Oc2c(C(C)C)c(=O)[nH]c(=O)n2Cc2cc(Br)cc(Br)c2)c1
LABEL VALUE: Not met

----------
MEASUREMENT LABEL: melting point

COMPOUND: CCc1c(C(=O)c2cc(C)cc(C)c2)n(Cc2cc(C)cc(C)c2)c(=O)[nH]c1=O [Example 53]
VAL: 188 to 190 °C
--
COMPOUND: Cc1cc(C)cc(Oc2c(C(C)C)c(=O)[nH]c(=O)n2Cc2cccc(Cl)n2)c1 [Example 124]
VAL: 223 to 225 °C
--
COMPOUND: CCc1c(Sc2cc(C)cc(C)c2)n(Cc2ccc3ccccc3n2)c(=O)[nH]c1=O [Example 131]
VAL: 107 to 110 °C
--
COMPOUND: Cc1cc(C)cc(C(=O)c2c(C(C)C)c(=O)[nH]c(=O)n2Cc2cc(F)ccc2F)c1 [Example 72]
VAL: 205 to 207 °C
--
COMPOUND: CCc1c(Sc2cc(C)cc(C)c2)n(Cc2cc(F)cc(F)c2)c(=O)[nH]c1=O [Example 73]
VAL: 219 to 221 °C
--
COMPOUND: CCc1c(Sc2cc(C)cc(C)c2)n(Cc2ccccn2)c(=O)[nH]c1=O [Example 109]
VAL: 217 to 219 °C
--
COMPOUND: Cc1cc(C)cc(Sc2c(C(C)C)c(=O)[nH]c(=O)n2Cc2c3ccccc3cc3ccccc23)c1 [Example 98]
VAL: 129 to 131 °C
--
COMPOUND: Cc1cc(C)cc(Sc2c(C(C)C)c(=O)[nH]c(=O)n2Cc2cc(F)cc(F)c2)c1 [Example 74]
VAL: 203 to 205 °C
--
COMPOUND: CCc1c(Oc2cc(C)cc(C)c2)n(Cc2cccc(Cl)n2)c(=O)[nH]c1=O [Example 123]
VAL: 199 to 201 °C
--
COMPOUND: Cc1cc(C)cc(C(=O)c2c(C(C)C)c(=O)[nH]c(=O)n2Cc2cccc(Cl)n2)c1 [Example 126]
VAL: 206 to 208 °C
--
COMPOUND: CCc1c(Oc2cc(C)cc(C)c2)n(Cc2cccc(Br)n2)c(=O)[nH]c1=O [Example 127]
VAL: 201 to 203 °C
--
COMPOUND: Cc1cc(C)cc(Sc2c(C(C)C)c(=O)[nH]c(=O)n2Cc2cccc(Cl)n2)c1 [Example 122]
VAL: 159 to 161 °C
--
COMPOUND: CCc1c(Sc2cc(C)cc(C)c2)n(Cc2cc(F)ccc2F)c(=O)[nH]c1=O [Example 67]
VAL: 214 to 216 °C
--
COMPOUND: CCC(=O)Cn1c(Oc2cc(C)cc(C)c2)c(CC)c(=O)[nH]c1=O [Example 161]
VAL: 116 to 118 °C
--
COMPOUND: CCc1c(C(=O)c2cc(C)cc(C)c2)n(Cn2nnc3ccccc32)c(=O)[nH]c1=O [Example 143]
VAL: 226 to 229 °C

----------
test system: mock-infected MT-4 cells; test: Cytotoxicity based on viability of mock-infected host cells (MTT method); type: cell-based; conditions: mock-infected MT-4 cells, MTT method, 4 or 5 days at 37° C.

COMPOUND: CCc1c(Oc2cc(C)cc(C)c2)n(CC2CCC2)c(=O)[nH]c1=O
OP: >
CD50, µg/mL: 100.00
--
COMPOUND: Cc1cc(C)cc(Oc2c(C(C)C)c(=O)[nH]c(=O)n2Cc2cc(C(F)(F)F)cc(C(F)(F)F)c2)c1
OP: >
CD50, µg/mL: 100.00
--
COMPOUND: Cc1cc(C)cc(Oc2c(C(C)C)c(=O)[nH]c(=O)n2Cc2cc(F)ccc2F)c1
OP: >
CD50, µg/mL: 100.00
--
COMPOUND: Cc1cc(C)cc(Sc2c(C(C)C)c(=O)[nH]c(=O)n2Cc2nc3ccccc3o2)c1
OP: >
CD50, µg/mL: 100.00
--
COMPOUND: CCc1c(C(=O)c2cc(C)cc(C)c2)n(Cc2ccc3c(c2)C(=O)c2ccccc2C3=O)c(=O)[nH]c1=O
OP: =
CD50, µg/mL: 2.38
--
COMPOUND: CCc1c(Sc2cc(C)cc(C)c2)n(Cc2c3ccccc3cc3ccccc23)c(=O)[nH]c1=O
OP: =
CD50, µg/mL: 0.59
--
COMPOUND: CCc1c(C(=O)c2cc(C)cc(C)c2)n(Cc2cc(OC)cc(OC)c2)c(=O)[nH]c1=O
OP: =
CD50, µg/mL: 69.00
--
COMPOUND: CCc1c(Sc2cc(C)cc(C)c2)n(Cc2cc(Cl)cc(Cl)c2)c(=O)[nH]c1=O
OP: =
CD50, µg/mL: 24.77
--
COMPOUND: CC(=O)Cn1c(C(=O)c2cc(C)cc(C)c2)c(C(C)C)c(=O)[nH]c1=O
OP: =
CD50, µg/mL: 14.0
--
COMPOUND: CCc1c(Sc2cc(C)cc(C)c2)n(Cc2ccc3c(c2)C(=O)c2ccccc2C3=O)c(=O)[nH]c1=O
OP: =
CD50, µg/mL: 85.19
--
COMPOUND: CCc1c(C(=O)c2cc(C)cc(C)c2)n(CC2CO2)c(=O)[nH]c1=O (stereo not drawn)
OP: >
CD50, µg/mL: 100.00
--
COMPOUND: Cc1cc(C)cc(Oc2c(C(C)C)c(=O)[nH]c(=O)n2Cc2ccccc2C#N)c1
OP: >
CD50, µg/mL: 100.00
--
COMPOUND: CCc1c(Sc2cc(C)cc(C)c2)n(Cc2ccccc2C#N)c(=O)[nH]c1=O
OP: >
CD50, µg/mL: 100.00
--
COMPOUND: Cc1cc(C)cc(Oc2c(C(C)C)c(=O)[nH]c(=O)n2Cn2nnc3ccccc32)c1
OP: >
CD50, µg/mL: 100.00
--
COMPOUND: CCc1c(Sc2cc(C)cc(C)c2)n(Cc2ccccc2)c(=O)[nH]c1=O
OP: =
CD50, µg/mL: 12.59

----------
MEASUREMENT LABEL: melting point

LINE NOTATION: CCc1c(C(=O)c2cc(C)cc(C)c2)n(Cc2cccc(C#N)c2)c(=O)[nH]c1=O
VAL: 206 to 207 °C

LINE NOTATION: CCc1c(Oc2cc(C)cc(C)c2)n(Cc2cc(F)ccc2F)c(=O)[nH]c1=O
VAL: 231 to 233 °C

LINE NOTATION: COc1cc(Cn2c(Oc3cc(C)cc(C)c3)c(C(C)C)c(=O)[nH]c2=O)cc(OC)c1
VAL: 162 to 164 °C

LINE NOTATION: Cc1cc(C)cc(Sc2c(C(C)C)c(=O)[nH]c(=O)n2Cc2ccccn2)c1
VAL: 194 to 196 °C

LINE NOTATION: CCc1c(Sc2cc(C)cc(C)c2)n(Cc2cccnc2)c(=O)[nH]c1=O
VAL: 202 to 205 °C

LINE NOTATION: Cc1cc(C)cc(C(=O)c2c(C(C)C)c(=O)[nH]c(=O)n2Cc2ccccc2C#N)c1
VAL: 250 to 253 °C

LINE NOTATION: Cc1cc(C)cc(Sc2c(C(C)C)c(=O)[nH]c(=O)n2Cc2cc(Cl)cc(Cl)c2)c1
VAL: 194 to 196 °C

LINE NOTATION: Cc1cc(C)cc(Sc2c(C(C)C)c(=O)[nH]c(=O)n2Cc2cc(F)ccc2F)c1
VAL: 192 to 194 °C

LINE NOTATION: CCc1c(Sc2cc(C)cc(C)c2)n(CC2CC2)c(=O)[nH]c1=O
VAL: 161 to 163 °C

LINE NOTATION: Cc1cc(C)cc(C(=O)c2c(C(C)C)c(=O)[nH]c(=O)n2Cc2ccc3c(c2)C(=O)c2ccccc2C3=O)c1
VAL: 156 to 158 °C
